Target: dopamine transporter (Rattus norvegicus)
Construct: from tissue; P2 synaptosomes for uptake
Sequence (P23977 whole entry): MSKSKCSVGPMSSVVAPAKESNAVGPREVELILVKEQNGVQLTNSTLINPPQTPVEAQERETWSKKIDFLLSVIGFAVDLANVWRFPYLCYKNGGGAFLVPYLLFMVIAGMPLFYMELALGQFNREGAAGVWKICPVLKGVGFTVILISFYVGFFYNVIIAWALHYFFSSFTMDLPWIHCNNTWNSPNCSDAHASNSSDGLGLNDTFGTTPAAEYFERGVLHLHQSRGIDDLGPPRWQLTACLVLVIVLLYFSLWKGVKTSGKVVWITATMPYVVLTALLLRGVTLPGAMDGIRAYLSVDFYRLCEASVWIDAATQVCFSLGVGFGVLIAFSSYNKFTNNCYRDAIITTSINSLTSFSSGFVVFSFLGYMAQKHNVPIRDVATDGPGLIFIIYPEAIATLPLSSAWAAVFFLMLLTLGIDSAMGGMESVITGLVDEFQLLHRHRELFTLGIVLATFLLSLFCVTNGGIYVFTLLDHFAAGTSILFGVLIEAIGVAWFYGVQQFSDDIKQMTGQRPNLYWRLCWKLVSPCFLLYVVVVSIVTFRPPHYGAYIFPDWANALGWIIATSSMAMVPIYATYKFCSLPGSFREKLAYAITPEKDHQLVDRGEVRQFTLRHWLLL
Assay: Inhibition of high-affinity [3H]dopamine uptake into rat striatal nerve endings (synaptosomes)
Type: biochemical
Conditions: Table 2; unit inferred; read-out: Dopamine Uptake
Catalogue of pIC50 readings, one per entry.
In plain terms, pIC50 is the concentration in mol/L turned into minus its base-10 logarithm.

CN1CCC(c2ccc(Cl)cc2)C(CO)C1 (single isomer, unassigned; (+)) = 6.06
CCCC1CN(C)CCC1c1ccc(Cl)cc1 (single isomer, unassigned; (+)) = 7.64
CCC[C@@H]1CN(C)CC[C@@H]1c1ccc(Cl)cc1 = 8.10
CN1CC[C@H](c2ccc(Cl)cc2)[C@H](CO)C1 = 7.31
COC(=O)[C@H]1CN(C)CC[C@@H]1c1ccc(Cl)cc1 = 7.47

Turning now to a further compound:
Answer with reported pIC50 of CC(=O)OC[C@@H]1CN(C)CC[C@@H]1c1ccc(Cl)cc1 7.20
